SUBJECT_OF_TEST: Renin (Homo sapiens, UniProt P00797)
Sequence (P00797 whole entry): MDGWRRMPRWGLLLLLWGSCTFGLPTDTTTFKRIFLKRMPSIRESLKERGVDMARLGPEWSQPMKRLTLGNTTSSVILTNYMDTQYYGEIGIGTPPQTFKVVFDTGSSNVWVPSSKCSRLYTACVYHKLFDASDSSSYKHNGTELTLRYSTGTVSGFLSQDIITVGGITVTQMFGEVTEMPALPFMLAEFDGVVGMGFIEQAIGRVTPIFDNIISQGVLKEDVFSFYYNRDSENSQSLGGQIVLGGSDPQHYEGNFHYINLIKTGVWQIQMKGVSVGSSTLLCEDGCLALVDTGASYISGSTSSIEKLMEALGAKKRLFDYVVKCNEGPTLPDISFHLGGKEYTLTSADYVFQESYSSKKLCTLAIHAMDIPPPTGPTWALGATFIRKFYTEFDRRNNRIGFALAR
ASSAY_NOTES: In vitro inhibition against human plasma renin at pH 7.2 was determined
Starred links: 1 amine or outer side, 2 acyl side, 3 side chain; linkers in the order of their positions; H or OH if unused. Non-standard residues stand in square brackets, D forms with d. Residues, ends and D or L forms follow the SMILES beside them. ξ: configuration not given here. *: point of attachment. ξLeuψ(P(O)(OH)CH2)ξVal = CC(C)CC(N[*:1])P(=O)(O)CC(C(=O)[*:2])C(C)C; X1 = CC(C)CC(N[*:1])P(=O)(O)C[C@@H](C(=O)[*:2])C(C)C; X2 = CC(C)CC(N[*:1])P(=O)(O)CCC(=O)[*:2]; X3 = CC(C)CC(N[*:1])P(=O)(O)CC(=O)[*:2]; NMeH = CN[C@@H](Cc1c[nH]cn1)C(=O)O; NMeF = CN[C@@H](Cc1ccccc1)C(=O)O; ξR = N=C(N)NCCCC(N)C(=O)O; Cbz = O=C(OCc1ccccc1)*; Boc = CC(C)(C)OC(=O)*; OtBu = CC(C)(C)O*
Reported IC50 is given for each of the following molecules.

[
  {
    "MOLECULE": "CC[C@H](C)[C@H](NC(=O)C(CP(=O)(O)C(CC(C)C)NC(=O)[C@H](Cc1cnc[nH]1)NC(=O)[C@H](Cc1ccccc1)NC(=O)[C@H]1CCCN1C(=O)[C@H](Cc1cnc[nH]1)NC(=O)[C@H]1CCCN1)C(C)C)C(=O)N[C@@H](Cc1cnc[nH]1)C(=O)N[C@@H](CCCCN)C(=O)O (some centres not stated)",
    "READOUT_RELATION": "=",
    "IC50, µM": 0.07
  },
  {
    "MOLECULE": "CC[C@H](C)[C@H](NC(=O)C(CP(=O)(O)C(CC(C)C)NC(=O)[C@H](Cc1cnc[nH]1)NC(=O)[C@H](Cc1ccccc1)NC(=O)OCc1ccccc1)C(C)C)C(=O)N[C@@H](Cc1ccccc1)C(N)=O (some centres not stated) (Cbz-FH[ξLeuψ(P(O)(OH)CH2)ξVal]IF-NH2)",
    "READOUT_RELATION": "=",
    "IC50, µM": 5
  },
  {
    "MOLECULE": "COC(=O)C(CP(=O)(O)C(CC(C)C)NC(=O)CC(O)C(CC(C)C)NC(=O)[C@H](Cc1cnc[nH]1)NC(=O)[C@H](Cc1ccccc1)NC(=O)OCc1ccccc1)C(C)C (some centres not stated)",
    "READOUT_RELATION": ">",
    "IC50, µM": 30
  },
  {
    "MOLECULE": "CC[C@H](C)[C@H](NC(=O)CCP(=O)(O)C(CC(C)C)NC(=O)[C@H](Cc1cnc[nH]1)NC(=O)[C@H](Cc1ccccc1)NC(=O)OCc1ccccc1)C(=O)N[C@@H](Cc1cnc[nH]1)C(N)=O (some centres not stated) (Cbz-FH[X2]IH-NH2)",
    "READOUT_RELATION": ">",
    "IC50, µM": 30
  },
  {
    "MOLECULE": "CC[C@H](C)[C@H](NC(=O)C(CP(=O)(O)C(CC(C)C)NC(=O)[C@H](Cc1cnc[nH]1)NC(=O)[C@H](Cc1ccccc1)NC(=O)[C@H]1CCCN1C(=O)OCc1ccccc1)C(C)C)C(=O)N[C@@H](Cc1cnc[nH]1)C(N)=O (some centres not stated)",
    "READOUT_RELATION": "=",
    "IC50, µM": 0.6
  },
  {
    "MOLECULE": "CC(C)CC(NC(=O)[C@H](Cc1c[nH]cn1)NC(=O)[C@H](Cc1ccccc1)NC(=O)[C@H]1CCCN1C(=O)OCc1ccccc1)P(=O)(O)O (some centres not stated)",
    "READOUT_RELATION": "=",
    "IC50, µM": 6.4
  },
  {
    "MOLECULE": "CC[C@H](C)[C@H](NC(=O)C(CP(=O)(O)C(CC(C)C)NC(=O)[C@H](Cc1c[nH]cn1)NC(=O)[C@H](Cc1ccccc1)NC(=O)CNC(=O)OCc1ccccc1)C(C)C)C(=O)N[C@@H](Cc1c[nH]cn1)C(N)=O (some centres not stated) (Cbz-GFH[ξLeuψ(P(O)(OH)CH2)ξVal]IH-NH2)",
    "READOUT_RELATION": "=",
    "IC50, µM": 0.8
  },
  {
    "MOLECULE": "COC(=O)CC(O)[C@H](CC(C)C)NC(=O)[C@H](C)NC(=O)C(CP(=O)(O)C(CC(C)C)NC(=O)[C@H](Cc1c[nH]cn1)NC(=O)[C@H](Cc1ccccc1)NC(=O)[C@H]1CCCN1C(=O)OCc1ccccc1)C(C)C (some centres not stated)",
    "READOUT_RELATION": "=",
    "IC50, µM": 0.9
  },
  {
    "MOLECULE": "CC[C@H](C)[C@H](NC(=O)[C@H](CP(=O)(O)C(CC(C)C)NC(=O)[C@H](Cc1cnc[nH]1)NC(=O)[C@H](Cc1ccccc1)NC(=O)OCc1ccccc1)C(C)C)C(=O)N[C@@H](Cc1cnc[nH]1)C(N)=O (some centres not stated) (Cbz-FH[X1]IH-NH2)",
    "READOUT_RELATION": "=",
    "IC50, µM": 2
  },
  {
    "MOLECULE": "CC[C@H](C)[C@H](NC(=O)CP(=O)(O)C(CC(C)C)NC(=O)[C@H](Cc1cnc[nH]1)NC(=O)[C@H](Cc1ccccc1)NC(=O)OCc1ccccc1)C(=O)N[C@@H](Cc1cnc[nH]1)C(N)=O (some centres not stated) (Cbz-FH[X3]IH-NH2)",
    "READOUT_RELATION": ">",
    "IC50, µM": 30
  },
  {
    "MOLECULE": "CC[C@H](C)[C@H](NC(=O)CCP(=O)(O)[C@@H](CC(C)C)NC(=O)[C@H](Cc1c[nH]cn1)NC(=O)[C@H](Cc1ccccc1)NC(=O)[C@H]1CCCN1C(=O)[C@H](CCCN=C(N)N)NC(=O)[C@H](CCCN=C(N)N)NC(=O)OCc1ccccc1)C(=O)N[C@@H](Cc1c[nH]cn1)C(N)=O",
    "READOUT_RELATION": "=",
    "IC50, µM": 10
  },
  {
    "MOLECULE": "CC[C@H](C)[C@H](NC(=O)[C@@H](CP(=O)(O)[C@@H](CC(C)C)NC(=O)[C@H](Cc1c[nH]cn1)NC(=O)[C@H](Cc1ccccc1)NC(=O)[C@H]1CCCN1C(=O)[C@H](CCCN=C(N)N)NC(=O)[C@H](CCCN=C(N)N)NC(=O)OCc1ccccc1)C(C)C)C(=O)N[C@@H](Cc1c[nH]cn1)C(N)=O",
    "READOUT_RELATION": "=",
    "IC50, µM": 0.1
  },
  {
    "MOLECULE": "CC[C@H](C)[C@H](NC(=O)C(CP(=O)(O)C(CC(C)C)NC(=O)[C@H](Cc1c[nH]cn1)NC(=O)[C@H](Cc1ccccc1)NC(=O)OCc1ccccc1)C(C)C)C(=O)NC(CCCN=C(N)N)C(=O)OC(C)(C)C (some centres not stated) (Cbz-FH[ξLeuψ(P(O)(OH)CH2)ξVal]I[ξR]-OtBu)",
    "READOUT_RELATION": ">",
    "IC50, µM": 30
  },
  {
    "MOLECULE": "CC[C@H](C)[C@H](NC(=O)C(CP(=O)(O)C(CC(C)C)NC(=O)[C@H](Cc1c[nH]cn1)N(C)C(=O)[C@H](Cc1ccccc1)NC(=O)OC(C)(C)C)C(C)C)C(=O)N[C@@H](Cc1c[nH]cn1)C(N)=O (some centres not stated) (Boc-F[NMeH][ξLeuψ(P(O)(OH)CH2)ξVal]IH-NH2)",
    "READOUT_RELATION": ">",
    "IC50, µM": 30
  },
  {
    "MOLECULE": "CC[C@H](C)[C@H](NC(=O)C(CP(=O)(O)C(CC(C)C)NC(=O)[C@H](Cc1ccccc1)NC(=O)[C@H](Cc1ccccc1)NC(=O)OC(C)(C)C)C(C)C)C(=O)N[C@@H](Cc1cnc[nH]1)C(N)=O (some centres not stated) (Boc-FF[ξLeuψ(P(O)(OH)CH2)ξVal]IH-NH2)",
    "READOUT_RELATION": "=",
    "IC50, µM": 6
  },
  {
    "MOLECULE": "CC(C)CC(NC(=O)[C@H](Cc1cnc[nH]1)NC(=O)[C@H](Cc1ccccc1)NC(=O)[C@H]1CCCN1C(=O)OCc1ccccc1)[PH](=O)O (some centres not stated)",
    "READOUT_RELATION": ">",
    "IC50, µM": 30
  },
  {
    "MOLECULE": "CC[C@H](C)[C@H](NC(=O)C(CP(=O)(O)C(CC(C)C)NC(=O)[C@H](Cc1ccccc1)N(C)C(=O)[C@H](Cc1ccccc1)NC(=O)OC(C)(C)C)C(C)C)C(=O)N[C@@H](Cc1c[nH]cn1)C(N)=O (some centres not stated) (Boc-F[NMeF][ξLeuψ(P(O)(OH)CH2)ξVal]IH-NH2)",
    "READOUT_RELATION": ">",
    "IC50, µM": 30
  }
]

The measurements presented in this section are drawn from ChEMBL document CHEMBL1124603.
